biological target: UniProt:P25774
pIC50: −log10 of the molar value.
Rule: pIC50 under 9 gives N, otherwise Y.

1. CC(C)(C)N1CCN(c2ccc(S(=O)(=O)[C@@H]3C[C@@H](C(=O)NC4(C#N)CC4)[C@H](C(=O)N4CC(F)(F)C4)C3)c(Cl)c2)CC1; Y
2. Cc1cc(Cl)ccc1S(=O)(=O)[C@@H]1C[C@@H](C(=O)NC2(C#N)CCN(C)CC2)[C@H](C(=O)N2CCOCC2)C1; Y
3. N#CC1(NC(=O)[C@H]2CC[C@H](S(=O)(=O)c3ccc(N4CC5(COC5)C4)cc3Cl)C2)CC1 (racemic); N
4. N#CC1(NC(=O)[C@@H]2C[C@H](S(=O)(=O)c3ccccn3)C[C@H]2C(=O)N2CCC(F)(F)C2)CC1; N
5. N#CC1(NC(=O)[C@@H]2C[C@@H](S(=O)(=O)c3ccc(F)cc3Cl)C[C@H]2COc2ccc(Cl)nc2)CC1; N
6. N#CC1(NC(=O)[C@@H]2C[C@H](S(=O)(=O)c3ccc(Cl)cn3)C[C@H]2C(=O)N2CCC(F)(F)C2)CC1; N
7. CO[C@@H]1C[C@H](S(=O)(=O)c2ccc(-c3ccccn3)cc2C(F)(F)F)C[C@H]1C(=O)NC1(C#N)CC1 (racemic); Y
8. N#CC1(NC(=O)[C@H]2CC[C@@H](S(=O)(=O)c3ccc(OCC(F)(F)F)cc3Cl)C2)CC1 (single isomer, unassigned); N
9. N#CCNC(=O)[C@@H]1C[C@@H](S(=O)(=O)Cc2ccccc2)C[C@H]1C(=O)N1CCOCC1; N
10. CC(C)OC[C@@H]1C[C@H](S(=O)(=O)c2ccc(F)cc2Cl)C[C@H]1C(=O)NC1(C#N)CC1; N
11. N#CC1(NC(=O)[C@@H]2C[C@@H](S(=O)(=O)c3ccc(F)cc3Cl)C[C@H]2COc2cccnc2)CC1; N
12. COc1cncc(-c2ccc(S(=O)(=O)[C@H]3C[C@@H](OC)[C@H](C(=O)NC4(C#N)CC4)C3)c(C(F)(F)F)c2)c1 (racemic); Y
13. N#CC1(NC(=O)[C@H]2C[C@@H](S(=O)(=O)c3ccccc3Cl)C[C@@H]2O)CC1 (racemic); N

###

// human Cat S (Homo sapiens, UniProt P25774) IC50 records
quantity.kind: IC50

1. Cc1cc(-c2ccc(S(=O)(=O)[C@@H]3C[C@@H](C(=O)NC4(C#N)CC4)[C@H](C(=O)N4CCC(F)(F)C4)C3)c(Cl)c2)ccn1; 0.135 nM
2. N#CCNC(=O)[C@@H]1CC(S(=O)(=O)c2ccccc2Cl)C[C@H]1COc1ccc(O)nn1 (mixture of isomers); 20.2 nM
3. CCCO[C@@H]1C[C@H](S(=O)(=O)c2ccccc2C(F)(F)F)C[C@H]1C(=O)NC1(C#N)CC1 (racemic); 2.1 nM

###

biological target: human Cat S (Homo sapiens, UniProt P25774)
Sequence (P25774 115-331): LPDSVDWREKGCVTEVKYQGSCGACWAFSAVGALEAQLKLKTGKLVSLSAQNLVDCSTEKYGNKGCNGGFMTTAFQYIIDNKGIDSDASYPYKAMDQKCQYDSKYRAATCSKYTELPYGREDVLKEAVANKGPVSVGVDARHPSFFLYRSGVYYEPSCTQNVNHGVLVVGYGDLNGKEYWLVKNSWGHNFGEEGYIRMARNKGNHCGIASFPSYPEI
pIC50: −log10 of the molar value.
Rule: pIC50 under 7 gives N, otherwise Y.

1. CC(C)(C)N1CCN(c2ccc(S(=O)(=O)[C@@H]3C[C@@H](C(=O)NC4(C#N)CC4)[C@H](C(=O)N4CCC(F)(F)C4)C3)c(Cl)c2)CC1; Y
2. N#CCNC(=O)[C@@H]1C[C@H](S(=O)(=O)c2ccccc2Cl)C[C@H]1COc1ccc(Cl)cc1 (single isomer, unassigned); N
3. Cc1ccc(S(=O)(=O)C2C[C@@H](C(=O)NC3(C#N)CC3)[C@H](C(=O)N3CCC(F)(F)C3)C2)nn1 (mixture of isomers); Y
4. C[C@@H](Oc1ccc(S(=O)(=O)[C@H]2CC[C@H](C(=O)NC3(C#N)CC3)C2)c(Cl)c1)C(F)(F)F (racemic); N
5. Cn1nccc1-c1cccc(S(=O)(=O)[C@@H]2C[C@@H](C(=O)NC3(C#N)CC3)[C@H](C(=O)N3CCC(F)(F)C3)C2)c1; Y

###

target: UniProt P25774; assay: Cathepsin enzyme inhibition assay (fluorogenic peptide substrate cleavage); format: biochemical; details: human Cat S 1 nM; substrate Z-Val-Val-Arg-AMC 20 μM; pH 6.5; fluorescence over 20 minutes
quantity.kind: IC50 (nM)

1. N#CC1(NC(=O)[C@@H]2C[C@@H](S(=O)(=O)c3ccccc3)C[C@H]2C(=O)N2[C@@H]3CC[C@H]2COC3)CC1; 2
2. CO[C@@H]1C[C@H](S(=O)(=O)c2ccc(Br)cc2C(F)(F)F)C[C@H]1C(=O)NC1(C#N)CC1 (racemic); 6.2
3. Cn1cc(-c2ccc(S(=O)(=O)[C@H]3C[C@@H](OC4CCS(=O)(=O)CC4)[C@H](C(=O)NC4(C#N)CC4)C3)c(C(F)(F)F)c2)cn1 (racemic); 0.16
4. COCCn1cc(-c2ccc(S(=O)(=O)[C@H]3C[C@@H](OC)[C@H](C(=O)NC4(C#N)CC4)C3)c(C(F)(F)F)c2)cn1 (racemic); 0.435
5. N#CC1(NC(=O)[C@@H]2C[C@@H](S(=O)(=O)c3ccc(F)cc3Cl)C[C@H]2COc2ccc(F)cc2)CC1 (single isomer, unassigned); 1.25
6. CN1CCC(C#N)(NC(=O)[C@@H]2C[C@@H](S(=O)(=O)c3ccccc3C(F)(F)F)C[C@H]2OCc2ccc(Cl)cc2)CC1 (racemic); 7.3

###

biological target: human Cat S (Homo sapiens)
Quick reference for IC50 among some compounds
quantity.kind: IC50

1. N#CC1(NC(=O)[C@H]2CC[C@@H](S(=O)(=O)c3ccc(-n4cccn4)cc3Cl)C2)CC1 (single isomer, unassigned); 610 nM
2. Cc1cc(-c2ccc(S(=O)(=O)[C@H]3C[C@@H](OC4CCCC4)[C@H](C(=O)NC4(C#N)CC4)C3)c(C(F)(F)F)c2)ccn1 (racemic); 0.215 nM
3. CC(C)O[C@@H]1C[C@H](S(=O)(=O)c2ccc(Br)cc2C(F)(F)F)C[C@H]1C(=O)NC1(C#N)CC1 (racemic); 0.6 nM
4. N#CCNC(=O)[C@@H]1C[C@@H](S(=O)(=O)c2ccccc2C(F)(F)F)C[C@H]1C(=O)N1CCOCC1; 0.9 nM
5. CO[C@@H]1C[C@H](S(=O)(=O)c2ccc(N3CCN(C(C)=O)CC3)cc2C(F)(F)F)C[C@H]1C(=O)NC1(C#N)CC1 (racemic); 1.03 nM
6. CO[C@@H]1C[C@H](S(=O)(=O)c2ccc(OCC(F)(F)F)cc2Cl)C[C@H]1C(=O)NC1(C#N)CC1 (racemic); 8 nM

###

biological target: human Cat S (Homo sapiens)
pIC50: −log10 of the molar value.
quantity.kind: pIC50

1) N#CC1(NC(=O)[C@@H]2C[C@@H](S(=O)(=O)c3ccccc3Cl)C[C@H]2Oc2ccc(Cl)cc2)CC1 (racemic) [Example 243]; 8.84
2) CO[C@@H]1C[C@H](S(=O)(=O)c2ccc(-c3ccnc(C(F)(F)F)c3)cc2C(F)(F)F)C[C@H]1C(=O)NC1(C#N)CC1 (racemic) [Example 109]; 9.40
3) Cc1noc(C)c1-c1ccc(S(=O)(=O)[C@H]2C[C@@H](OC(C)C)[C@H](C(=O)NC3(C#N)CC3)C2)c(C(F)(F)F)c1 (racemic) [Example 141]; 9.70
4) N#CCNC(=O)[C@@H]1CC[C@H](S(=O)(=O)c2ccccc2Cl)C1 (racemic) [Example 43]; 6.46
5) CCOC(=O)N1CCC(C#N)(NC(=O)[C@@H]2C[C@@H](S(=O)(=O)c3ccc(-c4cnn(C)c4)cc3C(F)(F)F)C[C@H]2OC)CC1 (racemic) [Example 237]; 8.66
6) CCN1CCN(c2ccc(S(=O)(=O)[C@H]3CC[C@H](C(=O)NC4(C#N)CC4)C3)c(Cl)c2)CC1 (racemic) [Example 97]; 6.80

###

target: human Cat S (Homo sapiens, UniProt P25774)
Measured IC50 determines class: A = under 0.6 nM, B = from 0.6 nM up to 7 nM, C = 7 nM and over

1. N#CC1(NC(=O)[C@@H]2C[C@@H](S(=O)(=O)c3ccc(N4CC(F)(F)C4)cc3Cl)C[C@H]2C(=O)N2CC(F)(F)C2)CC1; B
2. N#CC1(NC(=O)[C@@H]2C[C@@H](S(=O)(=O)c3ccccc3Cl)C[C@H]2OCc2ccc(Cl)c(Cl)c2)CC1 (racemic); C
3. N#CC1(NC(=O)[C@@H]2C[C@@H](S(=O)(=O)c3ccc(F)cc3Cl)C[C@H]2COc2ccncc2)CC1; C
4. CC(C)CS(=O)(=O)[C@@H]1C[C@@H](C(=O)NCC#N)[C@H](C(=O)N2CCOCC2)C1; C
5. CN1CCN(c2ccc(S(=O)(=O)[C@@H]3C[C@@H](C(=O)NC4(C#N)CC4)[C@H](C(=O)N4CC(F)(F)C4)C3)c(Cl)c2)CC1; B
6. CC(=O)N1CCN(c2ccc(S(=O)(=O)C3CC(C(=O)NC4(C#N)CC4)C(C(=O)N4CC(F)(F)C4)C3)c(C(F)(F)F)c2)CC1 (stereo not shown); B
7. CO[C@@H]1C[C@H](S(=O)(=O)c2ccccc2C(F)(F)F)C[C@H]1C(=O)NCC#N (racemic); C
8. CO[C@@H]1C[C@H](S(=O)(=O)c2ccc(-c3c(C)noc3C)cc2C(F)(F)F)C[C@H]1C(=O)NC1(C#N)CC1 (racemic); A
9. N#CC1(NC(=O)[C@H]2CC[C@H](S(=O)(=O)c3ccc(N4CCN(C5CC5)CC4)cc3Cl)C2)CC1 (racemic); C
10. CC(=O)N1CCN(c2ccc(S(=O)(=O)[C@@H]3C[C@@H](C(=O)NC4(C#N)CC4)[C@H](C(=O)N4CCC(F)(F)C4)C3)c(Cl)c2)CC1; B
11. CCO[C@@H]1C[C@H](S(=O)(=O)c2ccc(-c3ccnc(C)c3)cc2C(F)(F)F)C[C@H]1C(=O)NC1(C#N)CC1 (racemic); A
12. N#CC1(NC(=O)[C@@H]2C[C@@H](S(=O)(=O)c3ccccc3)C[C@H]2C(=O)N2CCCCC2)CC1; B
13. Cc1cc(Cl)ccc1S(=O)(=O)[C@@H]1C[C@@H](C(=O)NCC#N)[C@H](C(=O)N2C[C@@H](C)O[C@@H](C)C2)C1; A
14. CC(C)N1CCN(c2ccc(S(=O)(=O)[C@H]3C[C@@H](OC4CCCC4)[C@H](C(=O)NC4(C#N)CC4)C3)c(C(F)(F)F)c2)CC1 (racemic); A
15. Cc1cc(Cl)ccc1S(=O)(=O)[C@H]1C[C@@H](C(=O)N2CCOCC2)[C@H](C(=O)N2CCC[C@H]2C#N)C1; C
16. N#CC1(NC(=O)[C@@H]2C[C@@H](S(=O)(=O)c3ccccc3C(F)(F)F)C[C@H]2OC2CCS(=O)(=O)CC2)CC1 (racemic); B
17. CN(C)C(=O)[C@@H]1C[C@H](S(=O)(=O)c2ccccc2)C[C@H]1C(=O)NC1(C#N)CC1; B
18. Cc1cc(Cl)ccc1S(=O)(=O)[C@@H]1C[C@@H](C(=O)NCC#N)[C@H](C(=O)N2CCN(C)CC2)C1; B
19. Cn1nccc1-c1ccc(S(=O)(=O)[C@@H]2C[C@@H](C(=O)NC3(C#N)CC3)[C@H](C(=O)N3CCC(F)(F)C3)C2)c(Cl)c1; A
20. N#CC1(NC(=O)[C@H]2CC[C@H](S(=O)(=O)c3ccc(N4CCOCC4)cc3Cl)C2)CC1 (racemic); C
21. C[C@H](Oc1ccc(S(=O)(=O)[C@@H]2C[C@@H](C(=O)NC3(C#N)CC3)[C@H](C(=O)N3CC(F)(F)C3)C2)c(Cl)c1)C(F)(F)F; B
22. CO[C@@H]1C[C@H](S(=O)(=O)c2ccc(-n3nc(C)ccc3=O)cc2Cl)C[C@H]1C(=O)NC1(C#N)CC1 (racemic); C
23. CCN1CCN(c2ccc(S(=O)(=O)[C@H]3C[C@@H](COc4ccc(F)cc4)[C@H](C(=O)NCC#N)C3)c(Cl)c2)CC1; A
